Test system: HeLa
assayProcedure: Antiproliferative activity against BRCA1-deficient human HeLa cells after 7 days by celltiter-blue assay
Assay type: functional
details: 168 h
Threshold-based label: CC50 under 300 nM gives yes (1), CC50 not under 300 nM gives no (0).

Lookup: Decide: CC50 of O=C(c1cc(Cc2c[nH]c(=O)c3cc(Cl)c(Cl)n23)ccc1F)N1CCNCC1 strictly below 300 nM?
Found: yes (1)

Lookup: And then O=C(c1cc(Cc2c[nH]c(=O)c3cc(Cl)c(Cl)n23)ccc1F)N1CCN(c2cc3ccccc3cn2)CC1 , what is it?
Found: no (0)

Lookup: // query: CN(C)CCN1CCN(C(=O)c2cc(Cc3c[nH]c(=O)c4cc(Cl)c(Cl)n34)ccc2F)CC1
Found: no (0)

Lookup: Also O=C(c1cc(Cc2c[nH]c(=O)c3cc(Cl)c(Cl)n23)ccc1F)N1CCN(C(=O)C2CCCC2)CC1 ?
Found: yes (1)

Lookup: Next up: O=C(c1cc(Cc2c[nH]c(=O)c3cccn23)ccc1F)N1CCCNCC1
Found: no (0)

Lookup: Follow-up item: CC(C)(C)C(=O)N1CCN(C(=O)c2cc(Cc3c[nH]c(=O)c4cc(Cl)c(Cl)n34)ccc2F)CC1
Found: no (0)

Lookup: Try this molecule next: O=C(c1cc(Cc2c[nH]c(=O)c3cc(Cl)c(Cl)n23)ccc1F)N1CCN(c2ccccn2)CC1
Found: no (0)

Lookup: Also check CN(C)C(C)(C)C(=O)N1CCN(C(=O)c2cc(Cc3c[nH]c(=O)c4cc(Cl)c(Cl)n34)ccc2F)CC1
Found: yes (1)

---

Record type: pIC50 measurement. Applies to: Poly [ADP-ribose] polymerase 1 (Homo sapiens, UniProt P09874)
Friendly reminder that pIC50 comes from taking -log10 of the concentration in mol/L.

Lookup: Kindly state the measured pIC50 obtained for O=C(c1cc(Cc2c[nH]c(=O)c3cc(Cl)c(Cl)n23)ccc1F)N1CCNCC1 with Poly [ADP-ribose] polymerase 1 (Homo sapiens, UniProt P09874).
Sequence (P09874 whole entry): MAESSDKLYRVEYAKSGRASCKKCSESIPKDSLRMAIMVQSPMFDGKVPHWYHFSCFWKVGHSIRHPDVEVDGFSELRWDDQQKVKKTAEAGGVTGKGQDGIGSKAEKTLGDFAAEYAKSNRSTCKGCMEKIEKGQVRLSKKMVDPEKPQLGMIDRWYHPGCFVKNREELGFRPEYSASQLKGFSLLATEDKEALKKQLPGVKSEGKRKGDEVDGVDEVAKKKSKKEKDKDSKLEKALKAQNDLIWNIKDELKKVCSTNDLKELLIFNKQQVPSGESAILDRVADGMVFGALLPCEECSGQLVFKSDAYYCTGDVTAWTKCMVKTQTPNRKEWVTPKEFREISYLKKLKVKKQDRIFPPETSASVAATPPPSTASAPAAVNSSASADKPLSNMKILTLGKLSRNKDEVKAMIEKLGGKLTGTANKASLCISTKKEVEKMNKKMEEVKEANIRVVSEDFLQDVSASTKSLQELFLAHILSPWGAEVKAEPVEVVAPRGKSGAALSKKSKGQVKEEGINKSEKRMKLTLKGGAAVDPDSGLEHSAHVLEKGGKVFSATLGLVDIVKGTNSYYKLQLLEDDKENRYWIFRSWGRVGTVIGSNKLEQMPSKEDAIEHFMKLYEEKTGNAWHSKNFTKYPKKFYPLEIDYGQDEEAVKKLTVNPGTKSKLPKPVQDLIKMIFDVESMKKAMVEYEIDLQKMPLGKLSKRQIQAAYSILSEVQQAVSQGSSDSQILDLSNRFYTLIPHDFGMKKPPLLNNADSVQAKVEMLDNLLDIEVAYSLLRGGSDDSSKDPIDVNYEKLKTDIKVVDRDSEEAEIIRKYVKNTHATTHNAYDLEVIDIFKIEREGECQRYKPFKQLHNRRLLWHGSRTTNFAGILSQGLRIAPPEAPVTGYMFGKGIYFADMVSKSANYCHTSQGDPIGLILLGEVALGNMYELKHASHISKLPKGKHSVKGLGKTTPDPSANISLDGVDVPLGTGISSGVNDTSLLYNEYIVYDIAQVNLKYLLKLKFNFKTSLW
Found: 8.64

Lookup: One more molecule: O=C(c1cc(Cc2c[nH]c(=O)c3cc(Cl)c(Cl)n23)ccc1F)N1CCCCC1
Found: 6.70

Lookup: Quick one: O=C(c1cc(Cc2c[nH]c(=O)c3cc(Cl)cn23)ccc1F)N1CCCNCC1
Found: 9.00

Lookup: Can you check O=C(c1ncc[nH]1)N1CCN(C(=O)c2cc(Cc3c[nH]c(=O)c4cc(Cl)c(Cl)n34)ccc2F)CC1 next?
Found: 8.51

Lookup: Could you do the same for CN1CCN(C(=O)c2cc(Cc3c[nH]c(=O)c4cc(Cl)c(Cl)n34)ccc2F)CC1 , please?
Found: 7.39

Lookup: Cool, now O=C(c1cc(Cc2c[nH]c(=O)c3cc(Cl)c(Cl)n23)ccc1F)N1CCC(N2CCCC2)CC1
Found: 8.27

Lookup: One more molecule: CN(C)CC(=O)N1CCN(C(=O)c2cc(Cc3c[nH]c(=O)c4cc(Cl)c(Cl)n34)ccc2F)CC1
Found: 8.60

Lookup: Now consider CN(C)C(=O)C(=O)N1CCN(C(=O)c2cc(Cc3c[nH]c(=O)c4cc(Cl)c(Cl)n34)ccc2F)CC1 and answer again.
Found: 8.70

Lookup: Now the molecule O=C(c1cc(Cc2c[nH]c(=O)c3cc(Cl)c(Cl)n23)ccc1F)N1CCN(C(=O)C2CCCC2)CC1
Found: 8.43
